Every entry's value here was drawn from paper PMC12136788.

Parameter binding signal: see the listing below.
# study system: T1, UNK ZnF1-6 (called full-length) (human, UniProt Q9C0B0 30-357)
# T1 sequence: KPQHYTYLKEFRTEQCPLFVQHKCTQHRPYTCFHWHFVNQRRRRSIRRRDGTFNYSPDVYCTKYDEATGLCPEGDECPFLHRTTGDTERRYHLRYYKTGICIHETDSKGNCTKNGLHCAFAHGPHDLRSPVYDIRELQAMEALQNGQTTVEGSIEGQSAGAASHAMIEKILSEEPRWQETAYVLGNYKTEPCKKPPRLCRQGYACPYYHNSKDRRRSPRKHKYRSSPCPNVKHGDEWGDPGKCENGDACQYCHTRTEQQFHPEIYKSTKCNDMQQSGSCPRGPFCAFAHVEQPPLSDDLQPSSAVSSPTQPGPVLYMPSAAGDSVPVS
# assay info: nsRBNS (natural sequence RNA bind-n-seq); RBNS binding buffer (assumed for nsRBNS): 25 mM Tris pH 7.5, 150 mM KCl, 3 mM MgCl2, 0.01% Triton X-100, 500 ug/ml BSA, 20 U/ml SUPERase-In, 4 C; UNK is unkempt and MSI1 is Musashi-1; names of the RNAs are library labels; protein concentration not given here; high values mean tight binding
The full ranking holds about 5,800 sequences; the median of “enrichment r” is about 0.68, and the highest 2% start at about 11. The list is a sample of the results.
Your answer is read as enrichment R, so omit the unit and give the number.

Worked set:
binder: chr5:136975339:136975545:-|3pUTR|ENSG00000152377|msi1|total|mutant (ssRNA) RNA: GGGAGUUCUACAGUCCGACGAUCAGAGCCCAUCAAAUCCUGAGUGUCAGUUUGUUGUCCCUAUUGCCGAUGAAACCGUGAUGCCGCAAAAACCCCGUAAAUUCUGAAUGCUUUUCCACGCCGACUUAUCUGGAAUGUGAACACCAACAGAGGAUUGAGCAUCA
units text: enrichment R
binding signal: 0.528

binder: chr3:124966548:124966651:-|3pUTR|ENSG00000173706|unk|total|mutant (ssRNA) RNA: GGGAGUUCUACAGUCCGACGAUCAGGAAGAAUGCAAAGUUCAGUAUUUCAAUACUUUGUAUUUUACUUGAAAUUACCCUCCGCCGCAUCUUUUUUUUCCUGUCUGAAAGCUUUUGUGUGGAUGAGAAGGGACAUUUCAUUUCCCAACAGAGGAUUGAGCAUCA
units text: enrichment R
binding signal: 0.473

Could you now consider this next binder?
Return reported binding signal; argument: chr4:127885990:127886091:+|CDS|ENSG00000142731|msi1|FALSE|unique (ssRNA) RNA: GGGAGUUCUACAGUCCGACGAUCAUUACUUAUCGGGAGACCACCCUUCGACACUGACACAGUCAAGAACACAUUAAAUAAAGUAGUAUUGGCAGAUUAUGAAAUGCCAUCUUUUUUGUCAAUAGAGGCCAAGGACCUUAUUCACAACAGAGGAUUGAGCAUCA 1.26
